# System: SK-MEL-28
# run_description: Cytotoxicity against human SK-MEL-28 cells after 48 hrs by SRB assay
# Type: functional, cell-based
# condition_info: Homo sapiens, SK-MEL-28, 48 h
Measured GI50 by item
quantity_name: GI50 (nM)

INSERT INTO results (chemical_smiles, quantity_name, observed_measurement) VALUES
  ('C/C=C1\NC(=O)[C@H](Cc2ccccc2)NC(=O)[C@@H](C(C)C)NC(=O)[C@@H]([C@H](C)CC)NC(=O)[C@H](NC(=O)[C@H](NC(=O)[C@H](CCCNC(=O)CCOCCOCCNC(=O)OCC2c3ccccc3-c3ccccc32)NC(=O)[C@H]2CCCN2C(=O)[C@H](NC(=O)[C@@H](NC(=O)[C@@H](NC(=O)[C@H](NC(=O)CCCC(C)C)C(C)C)[C@@H](C)O)C(C)C)C(C)C)[C@H](C)CC)[C@H](C)OC(=O)[C@H](C(C)C)NC1=O', 'GI50', 840),
  ('C/C=C1\NC(=O)[C@H](Cc2ccc(F)cc2)NC(=O)[C@@H](C(C)C)NC(=O)[C@@H]([C@H](C)CC)NC(=O)[C@H](NC(=O)[C@H](NC(=O)[C@H](CCCN)NC(=O)[C@H]2CCCN2C(=O)[C@H](NC(=O)[C@@H](NC(=O)[C@@H](NC(=O)[C@H](NC(=O)CC[C@@H](C)CC)C(C)C)[C@@H](C)O)C(C)C)C(C)C)[C@H](C)CC)[C@H](C)OC(=O)[C@H](C(C)C)NC1=O', 'GI50', 819),
  ('C/C=C1\NC(=O)[C@H](Cc2ccccc2)NC(=O)[C@@H](C(C)C)NC(=O)[C@@H]([C@H](C)CC)NC(=O)[C@H](NC(=O)[C@H](NC(=O)[C@H](CCCN)NC(=O)[C@H]2CCCN2C(=O)[C@H](NC(=O)[C@@H](NC(=O)[C@@H](NC(=O)[C@H](NC(=O)CCCCCCCCCCCCCCCCCCC)C(C)C)[C@@H](C)O)C(C)C)C(C)C)[C@H](C)CC)[C@H](C)OC(=O)[C@H](C(C)C)NC1=O', 'GI50', 905);
